Below is a list of entries, each paired with its recorded inhibition at 0.1 µM value.
Target: human recombinant adrenergic α1D receptor (Homo sapiens, UniProt P25100)
Construct: expressed in transfected cells; host or cells: HEK-293
Sequence (P25100 whole entry): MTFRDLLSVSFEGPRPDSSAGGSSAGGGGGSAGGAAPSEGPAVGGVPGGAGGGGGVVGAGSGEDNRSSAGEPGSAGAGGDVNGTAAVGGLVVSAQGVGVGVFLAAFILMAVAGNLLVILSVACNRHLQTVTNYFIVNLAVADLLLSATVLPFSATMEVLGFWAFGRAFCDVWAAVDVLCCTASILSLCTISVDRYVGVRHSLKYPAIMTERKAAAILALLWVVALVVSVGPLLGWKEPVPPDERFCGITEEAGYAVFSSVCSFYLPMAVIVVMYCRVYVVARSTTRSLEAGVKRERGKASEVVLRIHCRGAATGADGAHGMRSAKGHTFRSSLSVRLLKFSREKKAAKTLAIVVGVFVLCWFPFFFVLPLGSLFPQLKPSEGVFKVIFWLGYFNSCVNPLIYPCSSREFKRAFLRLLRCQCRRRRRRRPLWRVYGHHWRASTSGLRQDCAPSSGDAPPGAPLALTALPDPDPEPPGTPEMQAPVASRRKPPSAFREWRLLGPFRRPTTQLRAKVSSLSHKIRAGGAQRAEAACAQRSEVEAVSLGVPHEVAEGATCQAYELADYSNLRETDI
Assay: Radioligand binding, adrenergic α1D ([3H]Prazosin)
Conditions: read-out: Percentage inhibition of ligand binding, Adrenergic α1D (0.1 μM), compound at 0.1 μM; [3H]Prazosin; repeat datapoints each shown
Express your answer in %, writing the number without its unit.

Sample records with inhibition at 0.1 µM:
{"columns": ["compound", "units symbol", "inhibition at 0.1 µM"],
 "data": [
  ["COc1ccc(C(C)(O)Cn2c3c(c4cc(Cl)ccc42)C2CCC(C3)N2C)cc1F (centres unmarked)", "%", 0],
  ["CNC(=O)c1cccc(/C(C)=C/n2c3c(c4cc(C)ccc42)CN(C)CC3)c1", "%", 63],
  ["C=C(Cn1c2c(c3cc(C)ccc31)CN(C)CC2)c1ccncc1", "%", 44],
  ["C/C(=C\\n1c2c(c3cc(C)ccc31)CNCC2)c1ccncc1", "%", 20]
]}

For the next question, use this compound.
inhibition at 0.1 µM for human recombinant adrenergic α1D receptor (Homo sapiens, UniProt P25100) with input `CCN1CCc2c(c3cc(C)ccc3n2CCc2ccc(C)cc2)C1` equals 52
